Entries and their measured AUC of viability dose-response curve follow.
# System: NOMO1
# protocol-details: AUC of viability dose-response curve (% viability x log10 dose units); higher = less sensitive
# protocol-conditions: HPLM + 10% dialyzed FBS; 48 h

The reported value for CN(C)CCN1C(=O)c2cccc3cc(N)cc(c23)C1=O in terms of AUC of viability dose-response curve is 424

More entries:
The reported value for Cc1ccc2c(c1)c1c(n2CCc2ccc(C)nc2)CCN(C)C1 in terms of AUC of viability dose-response curve is 447

The reported value for CNC(=O)Nc1ccc(-c2nc(N3CC4CCC(C3)O4)c3cnn(C4CCC5(CC4)OCCO5)c3n2)cc1 in terms of AUC of viability dose-response curve is 359

The reported value for CN1CCN(CCOc2cc(OC3CCOCC3)c3c(Nc4c(Cl)ccc5c4OCO5)ncnc3c2)CC1 in terms of AUC of viability dose-response curve is 428

The reported value for COc1cc(N2CCC(N(C)C)CC2)ccc1Nc1ncc(Cl)c(Nc2ccccc2P(C)(C)=O)n1 in terms of AUC of viability dose-response curve is 333

###

Entries and their measured cell viability follow.
# Test system: P12-Ichikawa
# protocol-details: cell viability relative to DMSO control; higher = less cytotoxic
# protocol-conditions: HPLM + 10% dialyzed FBS; 48 h; 0.19 µM
Quick reminder: number only, in %, skip the unit.

Solved entries:
Observed cell viability on P12-Ichikawa, entry CN1CCN(CCCN2c3ccccc3Sc3ccc(C(F)(F)F)cc32)CC1 , equals 111

Observed cell viability on P12-Ichikawa, entry O=C(Nc1cccnn1)N1CCC(=Cc2cccc(Oc3ccc(C(F)(F)F)cn3)c2)CC1 , equals 103

Observed cell viability on P12-Ichikawa, entry C=CCc1ccc(O)c(-c2ccc(O)c(CC=C)c2)c1 , equals 28.9

More entries:
Observed cell viability on P12-Ichikawa, entry OC[C@H]1O[C@@H]2[C@@H](OC\3=N\C(=N)\C=C/[N@@]23)[C@@H]1O , equals 44.3

Observed cell viability on P12-Ichikawa, entry COC1=CC=C(C=C1O)C/2=C/C(=O)C3=C(O2)C=C(O[C@@H]4O[C@H](CO[C@@H]5O[C@@H](C)[C@H](O)[C@@H](O)[C@H]5O)[C@@H](O)[C@H](O)[C@H]4O)C=C3O , equals 116

###

# System: P12-Ichikawa
# protocol-details: cell viability relative to DMSO control; higher = less cytotoxic
# protocol-conditions: HPLM + 10% dialyzed FBS; 48 h; 15.4 µM
readout: cell viability (%)
Quick reminder: number only, in %, skip the unit.

Solved entries:
Observed cell viability on P12-Ichikawa, entry CCOc1ccc(Cc2cc([C@@H]3O[C@H](CO)[C@@H](O)[C@H](O)[C@H]3O)ccc2Cl)cc1 , equals 126

Observed cell viability on P12-Ichikawa, entry Cc1c[nH]c(-c2cnc(NCCNc3ccc(C#N)cn3)nc2-c2ccc(Cl)cc2Cl)n1 , equals 91.1

Observed cell viability on P12-Ichikawa, entry CC(C)Oc1ccc(C(=O)N[C@H](CNC(=O)CN(C)C)Cc2ccc(-c3cn4cccc([C@H](C)O)c4n3)cc2)cc1Cl , equals 45.8

Observed cell viability on P12-Ichikawa, entry O=C(O)CC/C=C\CC[C@@H]1[C@@H](N2CCCCC2)[C@@H](O)C[C@@H]1OCc1ccc(-c2ccccc2)cc1 , equals 108

Observed cell viability on P12-Ichikawa, entry OC[C@H]1O[C@@H]2[C@@H](OC\3=N\C(=N)\C=C/[N@@]23)[C@@H]1O , equals 7.98

Observed cell viability on P12-Ichikawa, entry COC(=O)\C1=C\CCN(C)C1 , equals 102

More entries:
Observed cell viability on P12-Ichikawa, entry CCN1CCCC1CNC(=O)c1cc([S+](N)(=O)[O-])ccc1OC (stereo not drawn) , equals 120

Observed cell viability on P12-Ichikawa, entry COc1ncc(-c2ccc3c(Nc4cc(Oc5cc(F)cc(F)c5)cc(C(=O)O)c4)c([S+](=O)([O-])NC4CC4)cnc3c2)c(OC)n1 , equals 78.6
